experiment_notes: Caspase-3/7 induction in CHO-K1 cells by small molecules, qHTS cell viability counter screen (AID 1346979); note: nearly all actives have a fitted effect of over 35% in size
conditions: CellTiter-Fluor fluorescence, 17 h; series mostly up to 92.4 µM
Records with an inconclusive call do not appear. Calls of active or inactive are those of the source. Calls come from the whole dose curve; as a rule, active = well fitted cell-killing curve with a large enough effect in the repeat runs; inconclusive = weak or mixed curves, or effect the other way; inactive = no such curve, though single readings can be large or run the other way.
Pick one: 1 for active, 0 for inactive

Called result for CC1=C(C)C(=O)C(CCCCC#CCCCC#CCO)=C(C)C1=O 1

Given [O-][n+]1ccc(Cl)cc1 , state the outcome it received in this test. 0

Test call, this compound: CCCCCC1CCC(=O)O1 (configuration not stated) 0

# outcome recorded in this test, key = NC(=O)c1cc[n+](CC2=C(C(=O)[O-])N3C(=O)[C@@H](NC(=O)Cc4cccs4)[C@H]3SC2)cc1 0

Status in this test for CCOCCn1c(N2CCCN(C)CC2)nc2ccccc21 ? 0

Write down the call the test reported for this compound. Item: COc1ccc(C(=O)c2ccc(C)cc2)c(O)c1 0

Could you kindly confirm the outcome this assay logged for CC(CC(C#N)(c1ccccc1)C(C)C)N(C)C (configuration not stated) ? 0

Look up the recorded call for O=C(C1CCCCC1)N1CC(=O)N2CCCc3ccccc3C2C1 (configuration not stated) in this test. 0

Returns: the outcome recorded for CCCc1ccc(OC)cc1 in this assay. 0

Hi, do you know how C1CCN(CN2CCCCC2)CC1 came out in this test? 0

In this assay, the call recorded for O=C(O)c1ccccc1[N+](=O)[O-] was what? 0

Hi team, can someone confirm the assay call for CC(C)(C(=O)O)c1ccc(C(O)CCCN2CCC(C(O)(c3ccccc3)c3ccccc3)CC2)cc1 (configuration not stated) ? 0

Could you check what this test reported for Cc1c(N=C=O)cccc1N=C=O ? 0

What is the recorded call for this compound in the test? CCN(CCCCOC(=O)c1ccc(OC)c(OC)c1)C(C)Cc1ccc(OC)cc1 (configuration not stated) 0

Which outcome was entered for the compound C/C(=C\C(C)CC(C)CC(C)C)C1CC(=O)OC1=O (configuration not stated) in this test? 0

What was the test verdict on CCC(C)C1N=C(C)C(C)S1 (configuration not stated) ? 0

Entry CC(C)(O)C(=O)O : call = ? 0

Could you please tell me the result logged for COc1cc(C)c(Cc2cnc(N)nc2N)cc1OC in this assay? 0

Recorded test outcome, item Cc1ccc(NC(=O)c2ccc(CN3CCN(C)CC3)cc2)cc1Nc1nccc(-c2cccnc2)n1 1

Query: recorded result category for C=CC(O)CCCCC (configuration not stated) in this test 0

Could you please tell me the result logged for COc1ccc(CN(CCN(C)C)c2ncccn2)cc1 in this assay? 0

// outcome(item) with item = CCCN(C1CCN(C(=O)C2CCNCC2)CC1)[C@@H]1CCc2ccc(OC)cc2C1 0

Can you look up the reported call for N#CCCCC(C#N)CCC#N (configuration not stated) for me? 0

Test call, this compound: O=C1CCCN1CCO 0

Recorded test outcome, item COC(=O)Cc1cccc2ccccc12 0

What did this assay record as the result for CC(=O)S[C@H](C(=O)N[C@H]1Cc2ccccc2[C@H]2CCC[C@@H](C(=O)O)N2C1=O)C(C)C ? 0

Kindly provide the recorded test outcome for the following compound: CCCCCCCCOCCCN 0

* * *

assay_system: Luciferin 4-monooxygenase (Photinus pyralis)
experiment_notes: qHTS assay to identify small molecule inhibitors of firefly luciferase (AID 1224835); note: nearly all actives have a fitted effect of over 25% in size
conditions: purified P. pyralis luciferase, luminescence inhibition; series mostly up to 115 µM
Results filed as inconclusive are left out. Active and inactive are the calls of the source. Calls come from the whole dose curve; as a rule, active = well fitted inhibition curve with a large enough effect in the repeat runs; inconclusive = weak or mixed curves; inactive = flat fitted curve, though single readings scatter.
Choose one outcome from this list and give only that: label 1 = active, label 0 = inactive

# lookup: test call for CCc1ccc(C(=O)C(C)CN2CCCCC2)cc1 (stereo not drawn) label 0

Which outcome did this test record for the compound CC(C)=CCC[C@H](C)CCO ? label 0

Outcome? c1ccc(-c2ccc(-c3ccccc3)cc2)cc1 label 1

Any idea what this test logged for CCC(C)C1N=C(C)C(C)S1 (stereo not drawn) ? label 0

Each compound tested received a call. Report the one for Nc1ncnc2c1ncn2[C@@H]1O[C@H](CO)[C@@H](O)[C@H]1O . label 0

What outcome does the record of this test show for O=C(O)COCC(=O)O ? label 0

Which outcome was assigned to CC(C)(Cc1c[nH]c2ccccc12)NCC(O)COc1ccccc1C#N (stereo not drawn) in this test? label 0

Hi, do you know how CCOC(=O)CC(O)(CC(=O)OCC)C(=O)OCC came out in this test? label 0

Test call for this compound, please: Clc1ccccc1-c1nc(-c2ccncc2)no1 label 1

How did this test come out for C[C@@H](O)[C@H]1C(=O)N2C(C(=O)O)=C(S[C@@H]3CN[C@H](CNS(N)(=O)=O)C3)[C@H](C)[C@H]12 ? label 0

Query: recorded result category for O=C1CCCN1CCO in this test label 0

Given COc1ccc(CN(CCN(C)C)c2ncccn2)cc1 , state the outcome it received in this test. label 0

Recorded test outcome, item CCOc1cc(OCC)c(C(C)=O)cc1OCC label 0

* * *

assay_system: Estrogen receptor beta (Homo sapiens) (UniProt Q92731)
Sequence (Q92731 whole entry, looked up): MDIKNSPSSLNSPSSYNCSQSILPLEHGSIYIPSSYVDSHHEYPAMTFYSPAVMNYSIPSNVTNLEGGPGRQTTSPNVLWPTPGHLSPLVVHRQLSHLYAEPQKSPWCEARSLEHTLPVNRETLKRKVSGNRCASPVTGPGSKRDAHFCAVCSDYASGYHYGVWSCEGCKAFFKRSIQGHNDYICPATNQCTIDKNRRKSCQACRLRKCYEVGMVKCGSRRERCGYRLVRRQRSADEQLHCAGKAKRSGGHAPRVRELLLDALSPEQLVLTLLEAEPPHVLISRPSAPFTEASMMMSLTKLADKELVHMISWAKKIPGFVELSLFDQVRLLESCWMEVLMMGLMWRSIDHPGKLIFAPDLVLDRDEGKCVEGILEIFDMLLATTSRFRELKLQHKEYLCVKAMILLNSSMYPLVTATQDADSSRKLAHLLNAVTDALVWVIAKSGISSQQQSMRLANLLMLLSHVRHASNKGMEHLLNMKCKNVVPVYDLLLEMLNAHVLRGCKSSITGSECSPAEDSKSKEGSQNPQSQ
experiment_notes: qHTS assay to identify small molecule agonists of the estrogen receptor beta (ER-beta) signaling pathway (AID 1259377); note: % is set by controls: 0 for no effect and ±100 for the full control effect
conditions: ER-beta-UAS-bla HEK293T, beta-lactamase FRET ratio, 16 h; series mostly up to 92.4 µM
Records with an inconclusive call do not appear. Active and inactive are the calls of the source. The call rests on the fitted dose curve; in most records, active means well fitted activation curve with a large enough effect in the signal ratio in the repeat runs (not every such curve was filed as active); inconclusive means weak or mixed curves, or effect the other way; inactive means flat fitted curve, though single readings scatter; the % refers to the signal ratio.
metric: activation

Example entries begin here.
compound	activation
C=CCCC	inactive
C=C[Si](OCC)(OCC)OCC	inactive
CC(C)(C)c1cc(C=O)cc(C(C)(C)C)c1O	inactive
CC(CN=Cc1ccccc1O)N=Cc1ccccc1O (configuration not stated)	inactive
CC1=C(C)C(=O)C(C(CCCCCC(=O)O)c2ccccc2)=C(C)C1=O (configuration not stated)	inactive
CCCC1CCOC(C)S1 (configuration not stated)	inactive
CCC[Si](OC)(OC)OC	inactive
COC(=O)/C=C/C(C)=C\C=C\C(C)=C\C=C\C=C(C)\C=C\C=C(C)\C=C\C(=O)O	inactive

Summary line: COc1ccc(/C=C/S(=O)(=O)NC(=O)c2ccc(C)cc2Cl)cc1 , Estrogen receptor beta (Homo sapiens) (UniProt Q92731), reported activation = inactive

Item O=C(O)c1ccc(O)c(O)c1 was tested on Estrogen receptor beta (Homo sapiens) (UniProt Q92731); the reported activation is inactive

// compound O=C(O)c1cc(C(=O)O)c(C(=O)O)cc1C(=O)O , assay Estrogen receptor beta (Homo sapiens) (UniProt Q92731), activation value: inactive

Form field, activation with Estrogen receptor beta (Homo sapiens) (UniProt Q92731), item Cc1ccc2c(Cl)cc(Cl)c(O)c2n1 : inactive

Tested on Estrogen receptor beta (Homo sapiens) (UniProt Q92731): c1ccc(CN(Cc2ccccc2)Cc2ccccc2)cc1 . Observed activation: inactive

* * *

experiment_notes: qHTS RealTime-Glo MT Cell Viability Assay in HepG2 cells - 8 hour (AID 1224873); note: % is set by controls: 0 for no effect and ±100 for the full control effect; nearly all actives have a fitted effect of over 55% in size
conditions: RealTime-Glo luminescence; series mostly up to 76.8 µM
Records with an inconclusive call do not appear. Activity calls are given as the source filed them. Calls follow the shape of the dose curve; as a rule, active = well fitted cell-killing curve with a large enough effect in the repeat runs; inconclusive = weak or mixed curves; inactive = flat fitted curve, though single readings scatter.

compound	viability change, negative = cytotoxic
O=C1OC(=O)C2CC=CCC12 (stereo not drawn)	inactive
O=C(O)c1ccc2cc(O)ccc2c1	inactive
CC(C)Oc1ccccc1O	inactive

* * *

experiment_notes: Caspase-3/7 induction in HepG2 cells by small molecules, qHTS cell viability counter screen (AID 1346981); note: % is set by controls: 0 for no effect and ±100 for the full control effect; nearly all actives have a fitted effect of over 30% in size
conditions: CellTiter-Fluor fluorescence, 17 h; series mostly up to 92.4 µM
Records with an inconclusive call do not appear. Calls of active or inactive are those of the source. Calls follow the shape of the dose curve; as a rule, active = well fitted cell-killing curve with a large enough effect in the repeat runs; inconclusive = weak or mixed curves, or effect the other way; inactive = flat fitted curve, though single readings scatter.
metric: Potency

molecule	Potency
FC1(F)C(F)(F)C(F)(F)C2(F)C(F)(C1(F)F)C(F)(F)C(F)(F)C1(F)C(F)(F)C(F)(F)C(F)(F)C(F)(F)C12F (centres undefined)	inactive
CCC(C(=O)O)c1ccc(N2Cc3ccccc3C2=O)cc1 (centres undefined)	inactive
C[C@@H](O)[C@H]1C(=O)N2C(C(=O)O)=C(S[C@@H]3CN[C@H](CNS(N)(=O)=O)C3)[C@H](C)[C@H]12	inactive
S=c1[nH][nH]c(=S)s1	inactive
Clc1cccc(C(c2ccc3nc[nH]c3c2)n2ccnc2)c1 (centres undefined)	inactive

Recorded Potency (molecule CC1=C(C)C(=O)C(CCCCC#CCCCC#CCO)=C(C)C1=O ): inactive

// Potency value for CCCCCCCCCCCCSCCOCCO : inactive

So, Cc1c(Nc2ncccc2C(=O)O)cccc1C(F)(F)F ? Its Potency was inactive

Value of Potency reported for the molecule CC(Cc1ccccc1)(NC(=O)CN)c1ccccc1 (centres undefined) is inactive

The reported value for CCCC(=O)OCc1ccccc1 in terms of Potency is inactive

Lab book: Potency of O=P(c1ccccc1)(c1ccccc1)c1ccccc1 noted as inactive

Given item CC(CC(C#N)(c1ccccc1)C(C)C)N(C)C (centres undefined) , the value recorded as its Potency is inactive

The molecule listed as CCCCCCC/C=C/C=O shows Potency equal to inactive

Potency in this record for CCc1ccc2c(c1)C(=O)c1ccccc1C2=O : inactive

// Potency lookup, molecule = C/C=C1\[C@H]2C=C(C)C[C@]1(N)c1ccc(=O)[nH]c1C2 , result: inactive

Field Potency (entry N#C[C@@H]1CC(F)(F)CN1C(=O)CNC1CC2CCC(C1)N2c1ncccn1 (some centres undefined) ) reads inactive

Briefly, Potency measured for CCCCCC1CCC(=O)O1 (centres undefined) : inactive
